measuredTarget: Pim1 (Homo sapiens, UniProt P11309)
Sequence (P11309 whole entry, species assumed): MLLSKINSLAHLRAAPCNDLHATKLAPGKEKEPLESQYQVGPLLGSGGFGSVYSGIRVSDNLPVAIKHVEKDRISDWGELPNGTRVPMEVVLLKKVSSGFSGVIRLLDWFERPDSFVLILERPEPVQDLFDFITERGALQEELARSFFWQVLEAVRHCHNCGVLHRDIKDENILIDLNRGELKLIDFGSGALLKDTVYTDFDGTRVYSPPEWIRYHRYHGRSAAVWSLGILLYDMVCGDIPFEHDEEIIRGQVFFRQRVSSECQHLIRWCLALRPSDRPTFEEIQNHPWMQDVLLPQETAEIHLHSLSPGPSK
pIC50: −log10 of the molar value.
reportedMetric: pIC50

Item: CC[C@@H]1CN(C(=O)NCC(F)(F)F)C[C@@H]1c1cnc2cnc3[nH]ccc3n12 [upadacitinib] Test system: Pim1 (Homo sapiens, UniProt P11309) Read-out: pIC50 Value: ? < 5.00

----------
measuredTarget: STK33 (Homo sapiens)
Sequence (Q9BYT3 whole entry, species assumed): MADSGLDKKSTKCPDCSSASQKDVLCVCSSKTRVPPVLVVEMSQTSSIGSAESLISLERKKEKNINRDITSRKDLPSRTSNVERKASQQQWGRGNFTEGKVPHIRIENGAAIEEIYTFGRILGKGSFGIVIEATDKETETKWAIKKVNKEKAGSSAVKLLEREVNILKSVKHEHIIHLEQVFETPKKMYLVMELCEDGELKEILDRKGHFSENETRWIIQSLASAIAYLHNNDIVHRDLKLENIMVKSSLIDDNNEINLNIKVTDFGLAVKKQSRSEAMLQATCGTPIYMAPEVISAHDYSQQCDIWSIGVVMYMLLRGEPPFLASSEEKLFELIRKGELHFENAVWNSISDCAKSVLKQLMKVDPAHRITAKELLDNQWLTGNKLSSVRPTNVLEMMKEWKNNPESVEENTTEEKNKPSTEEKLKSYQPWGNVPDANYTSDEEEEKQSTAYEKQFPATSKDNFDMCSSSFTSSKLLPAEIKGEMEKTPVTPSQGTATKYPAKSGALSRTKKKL
pIC50: −log10 of the molar value.
reportedMetric: pIC50

Which pIC50 is listed for CC[C@@H]1CN(C(=O)NCC(F)(F)F)C[C@@H]1c1cnc2cnc3[nH]ccc3n12 [upadacitinib] ? < 5.00

----------
measuredTarget: BTK (Homo sapiens)
Sequence (Q06187 whole entry, species assumed): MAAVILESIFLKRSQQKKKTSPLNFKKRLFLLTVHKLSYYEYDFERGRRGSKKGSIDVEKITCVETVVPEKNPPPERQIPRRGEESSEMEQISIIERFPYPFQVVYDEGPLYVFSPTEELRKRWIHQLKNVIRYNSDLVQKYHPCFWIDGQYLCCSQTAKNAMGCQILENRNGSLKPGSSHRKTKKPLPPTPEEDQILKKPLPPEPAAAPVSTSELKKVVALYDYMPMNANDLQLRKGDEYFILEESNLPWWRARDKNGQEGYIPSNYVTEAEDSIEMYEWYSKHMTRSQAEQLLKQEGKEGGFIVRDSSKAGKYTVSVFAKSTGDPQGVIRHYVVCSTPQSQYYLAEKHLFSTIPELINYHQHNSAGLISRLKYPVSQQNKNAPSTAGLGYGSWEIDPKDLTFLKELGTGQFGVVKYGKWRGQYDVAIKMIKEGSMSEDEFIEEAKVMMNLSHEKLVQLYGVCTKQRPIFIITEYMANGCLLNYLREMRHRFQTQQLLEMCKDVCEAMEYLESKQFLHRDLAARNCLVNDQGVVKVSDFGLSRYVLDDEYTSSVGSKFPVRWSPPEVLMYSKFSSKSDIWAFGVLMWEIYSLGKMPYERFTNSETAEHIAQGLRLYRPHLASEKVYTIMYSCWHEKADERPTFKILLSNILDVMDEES
reportedMetric: IC50

Which IC50 is listed for CC[C@@H]1CN(C(=O)NCC(F)(F)F)C[C@@H]1c1cnc2cnc3[nH]ccc3n12 ? > 10 µM

----------
Target chain: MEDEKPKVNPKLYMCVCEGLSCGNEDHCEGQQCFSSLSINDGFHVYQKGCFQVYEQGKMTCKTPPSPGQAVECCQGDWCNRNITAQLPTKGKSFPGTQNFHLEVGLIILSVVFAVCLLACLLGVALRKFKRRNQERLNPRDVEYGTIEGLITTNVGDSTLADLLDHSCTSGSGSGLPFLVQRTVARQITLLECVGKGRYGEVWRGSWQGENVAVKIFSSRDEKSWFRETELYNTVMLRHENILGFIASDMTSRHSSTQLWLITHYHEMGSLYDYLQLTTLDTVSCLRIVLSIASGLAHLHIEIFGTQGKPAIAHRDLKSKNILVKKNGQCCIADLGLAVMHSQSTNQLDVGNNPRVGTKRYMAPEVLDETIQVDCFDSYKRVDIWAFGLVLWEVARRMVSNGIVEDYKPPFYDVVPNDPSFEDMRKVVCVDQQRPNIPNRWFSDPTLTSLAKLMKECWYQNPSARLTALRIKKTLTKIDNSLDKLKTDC
pIC50: −log10 of the molar value.
reportedMetric: pIC50

Which pIC50 is listed for CC[C@@H]1CN(C(=O)NCC(F)(F)F)C[C@@H]1c1cnc2cnc3[nH]ccc3n12 ? < 5.00

----------
measuredTarget: SGK1 (Homo sapiens, UniProt O00141)
Sequence (O00141 whole entry, species assumed): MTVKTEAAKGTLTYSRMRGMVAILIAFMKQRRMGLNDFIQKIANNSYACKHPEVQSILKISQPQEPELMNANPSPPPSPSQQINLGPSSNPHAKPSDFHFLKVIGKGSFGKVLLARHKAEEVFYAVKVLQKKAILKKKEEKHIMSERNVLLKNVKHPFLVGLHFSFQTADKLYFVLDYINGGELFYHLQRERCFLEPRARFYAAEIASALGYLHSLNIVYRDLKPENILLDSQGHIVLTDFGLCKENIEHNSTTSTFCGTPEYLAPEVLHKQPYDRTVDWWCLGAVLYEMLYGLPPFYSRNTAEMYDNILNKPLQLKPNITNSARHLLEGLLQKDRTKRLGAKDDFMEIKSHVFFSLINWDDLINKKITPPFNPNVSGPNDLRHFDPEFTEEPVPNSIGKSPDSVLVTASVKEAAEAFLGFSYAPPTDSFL
experimentDescription: trFRET binding kinome profiling
reportedMetric: IC50

Which IC50 is listed for CC[C@@H]1CN(C(=O)NCC(F)(F)F)C[C@@H]1c1cnc2cnc3[nH]ccc3n12 ? > 10 µM

----------
measuredTarget: CDK7/Cyclin H/Mat1 (Homo sapiens)
Sequence (P50613 whole entry, species assumed): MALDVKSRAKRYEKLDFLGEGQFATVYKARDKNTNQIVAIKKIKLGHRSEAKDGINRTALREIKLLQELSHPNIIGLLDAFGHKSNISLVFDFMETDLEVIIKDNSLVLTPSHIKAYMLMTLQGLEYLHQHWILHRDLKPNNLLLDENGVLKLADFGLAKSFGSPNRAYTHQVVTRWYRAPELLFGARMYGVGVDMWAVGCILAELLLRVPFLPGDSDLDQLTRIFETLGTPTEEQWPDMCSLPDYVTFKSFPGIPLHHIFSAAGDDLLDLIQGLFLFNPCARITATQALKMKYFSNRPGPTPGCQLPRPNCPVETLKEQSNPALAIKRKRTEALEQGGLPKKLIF
Sequence (P51946 whole entry partner, species assumed): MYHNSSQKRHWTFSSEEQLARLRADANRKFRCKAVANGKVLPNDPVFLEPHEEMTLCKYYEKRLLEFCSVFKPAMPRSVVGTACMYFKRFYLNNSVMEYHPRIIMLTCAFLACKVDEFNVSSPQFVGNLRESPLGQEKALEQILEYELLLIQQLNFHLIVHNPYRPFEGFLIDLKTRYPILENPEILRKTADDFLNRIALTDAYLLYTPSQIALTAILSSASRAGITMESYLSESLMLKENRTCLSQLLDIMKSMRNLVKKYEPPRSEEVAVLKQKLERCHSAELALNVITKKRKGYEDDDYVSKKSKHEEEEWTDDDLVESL
Sequence (P51948 whole entry partner, species assumed): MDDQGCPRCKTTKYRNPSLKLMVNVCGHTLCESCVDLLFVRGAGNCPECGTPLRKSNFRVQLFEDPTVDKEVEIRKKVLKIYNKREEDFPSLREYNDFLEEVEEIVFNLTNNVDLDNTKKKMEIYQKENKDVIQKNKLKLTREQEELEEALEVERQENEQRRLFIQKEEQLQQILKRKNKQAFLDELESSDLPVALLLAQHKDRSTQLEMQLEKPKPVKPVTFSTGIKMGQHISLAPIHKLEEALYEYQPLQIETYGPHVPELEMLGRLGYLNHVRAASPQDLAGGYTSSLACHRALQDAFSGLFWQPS
experimentDescription: trFRET binding kinome profiling
reportedMetric: IC50

Which IC50 is listed for CC[C@@H]1CN(C(=O)NCC(F)(F)F)C[C@@H]1c1cnc2cnc3[nH]ccc3n12 ? > 10 µM
